# credit: patent US11186583B2

# Target desc: CDK4/Cyclin D1 (Homo sapiens)
# Sequence (P11802 whole entry): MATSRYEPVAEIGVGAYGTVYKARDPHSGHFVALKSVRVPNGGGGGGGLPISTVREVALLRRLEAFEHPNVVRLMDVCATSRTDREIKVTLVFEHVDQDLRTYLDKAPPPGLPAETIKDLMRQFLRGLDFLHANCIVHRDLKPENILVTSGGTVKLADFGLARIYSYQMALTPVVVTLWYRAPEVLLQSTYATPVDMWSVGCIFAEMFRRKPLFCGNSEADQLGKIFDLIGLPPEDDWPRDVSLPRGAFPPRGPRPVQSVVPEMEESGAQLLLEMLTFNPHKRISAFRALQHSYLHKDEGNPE
# Sequence (P24385 whole entry partner): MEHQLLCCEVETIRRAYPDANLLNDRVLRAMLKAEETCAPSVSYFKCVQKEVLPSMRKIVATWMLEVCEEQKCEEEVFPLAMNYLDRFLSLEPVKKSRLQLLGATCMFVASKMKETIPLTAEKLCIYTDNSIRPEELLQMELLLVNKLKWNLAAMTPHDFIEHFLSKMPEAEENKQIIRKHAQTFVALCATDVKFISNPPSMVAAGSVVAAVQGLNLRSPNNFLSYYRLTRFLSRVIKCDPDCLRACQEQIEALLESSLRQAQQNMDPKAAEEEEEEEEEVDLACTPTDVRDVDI
# Protocol summary: CDK4/Cyclin D1 kinase inhibition, [γ-33P]ATP, […] peptide
# Assay conditions: CDK panel, tested at least in duplicates
Property label: pIC50
Give bare numbers, as −log10 of the molar value.

Field pIC50 (CDK4/Cyclin D1 (Homo sapiens)), entry CC[C@@H](CO)Nc1nc(NCc2ccc(-c3ccccn3)cc2)c2ncn(C(C)C)c2n1 : 4.58

----------
For each entry below, report its GI50 value.
# System: MINO (mantle cell lymphoma)
Give bare numbers, in µM.

INSERT INTO measurements (compound, target_desc, unit_descriptor, reported_measurement) VALUES
  ('CC(C)c1n[nH]c2c(NCc3ccc(-c4ccccn4)cc3)nc(SCCCN)nc12', 'MINO (mantle cell lymphoma)', 'µM', 0.156);

Please give GI50, item by item, for the list that follows.
1. CC(C)c1n[nH]c2c(NCc3ccc(-c4ccccn4)cc3)nc(SCC(N)=O)nc12
2. CC(C)c1n[nH]c2c(NCc3ccc(-c4ccccn4)cc3)nc(SC3CCCCC3O)nc12 (centres unmarked)
3. CC(C)c1n[nH]c2c(NCc3ccc(-c4ccccn4)cc3)nc(SCC(O)CO)nc12 (centres unmarked)
4. CC(C)c1n[nH]c2c(NCc3ccc(-c4ccccn4)cc3)nc(SCC(O)CN)nc12 (racemic)

Reply:
0.197
0.53
0.01
0.064

Dear colleague, could you please provide GI50 for the compounds listed below?
1. CCC(CO)Sc1nc(NCc2ccc(-c3ccccn3)cc2)c2[nH]nc(C(C)C)c2n1 (centres unmarked)
2. CC(C)c1n[nH]c2c(NCc3ccc(-c4ccccn4)cc3)nc(SC3CCCCC3N)nc12 (centres unmarked)
3. CC(C)c1n[nH]c2c(NCc3ccc(-c4ccccn4)cc3)nc(SCC(C)(C)N)nc12

Reply:
[0.119, 0.157, 0.064]
